Entry source: paper PMC6172220

# TESTED ON: T1, human calcineurin B homologous protein 3 (CHP3), hexa-histidine tagged (human, UniProt Q96BS2 2-214, fluorescent label NT647, randomly attached, labelling efficiency about 30% (MST only))
# T1 sequence (looked up): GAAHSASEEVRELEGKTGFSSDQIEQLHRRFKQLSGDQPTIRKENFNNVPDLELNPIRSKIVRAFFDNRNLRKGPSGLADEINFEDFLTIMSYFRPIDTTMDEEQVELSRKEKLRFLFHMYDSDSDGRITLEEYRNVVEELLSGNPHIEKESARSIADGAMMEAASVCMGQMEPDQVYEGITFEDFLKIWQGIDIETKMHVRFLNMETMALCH
# PROTOCOL NOTES: ITC; 200 uM CHP3 in the syringe injected into 20 uM MBP-CBD in the cell, 57 injections, 25 °C; 20 mM HEPES, 150 mM NaCl, 10 mM MgCl2, 5 mM TCEP, pH 7.2; global fit of three concentration-corrected biological replicates assuming n = 1
# COND: both partners purified
PROPERTY: Kd (nM)
Answers are plain numbers, in nM.

**Query** Given the binder VDLLAVKKKQETKRSINEEIHTQFLDHLLTGIEDICGHYGHHH (domain or fragment, UniProt P19634 503-545, looked up, The TEV site is printed without Tyr; No site for removal of the C-terminal His8 is described; also called MBP-CBD^NHE1; NHE1-CBD; source: E. coli BL21 (DE3), purified (IMAC, SEC); not shown: MBP (E. coli malE; UniProtKB P0AEX9 residues 27-393), N-terminal, kept) [MBP-CBD: CHP-binding region of human NHE1 (residues 503-545) fused to maltose-binding protein] , what is its reported Kd?
**Result** 3
